Ref: patent US4334067A

Assay: Acute toxicity
Settings: mouse, in vivo, po, 7 days observation
Each record here notes measured LD50 at 168 h.
Observed Property: LD50 at 168 h (mg/kg)

| Compound | Value Observed |
| --- | --- |
| COc1ccc([C@H]2Oc3ccccc3[C@H](NCCCN(C)C)[C@H]2O)cc1 (relative stereo) | 1500 |
| CN(C)CCN[C@H]1c2ccccc2O[C@@H](c2ccccc2)[C@@H]1O (relative stereo) | 300 |
| O[C@H]1[C@H](c2ccccc2)Oc2ccccc2[C@@H]1N1CCCCC1 (relative stereo) | 1500 |
| CN1CCN([C@H]2c3ccccc3O[C@@H](c3ccccc3)[C@@H]2O)CC1 (relative stereo) | 300 |
| CCN(CC)CCN[C@H]1c2ccccc2O[C@H](c2ccc(OC)cc2)[C@@H]1O (relative stereo) | 2000 |
| COc1ccc([C@H]2Oc3ccccc3[C@H](NCCCN3CCOCC3)[C@H]2O)cc1 (relative stereo) | 1500 |
| CC(=O)O[C@H]1[C@H](c2ccccc2)Oc2ccccc2[C@@H]1N1CCN(C)CC1 (relative stereo) | 1000 |
| COc1ccc([C@H]2Oc3ccccc3[C@H](N3CCN(C)CC3)[C@H]2O)cc1 (relative stereo) | 2000 |
